// provenance: the supplement of paper PMC8728848

Reported glycan array binding signal (z-score) is given for each of the following binders.
ASSAYED TARGET: Neu5Ac(b2-6)GalNAc
TEST DETAILS: glycan array binding signal (z-score within array); higher = stronger binding
MEASUREMENT PARAMETERS: glycan notation: IUPAC condensed, linker removed
About 410 targets per protein were measured; listed, in parts, are those with the strongest signals and a random draw of the rest.
API note: the answer field is a bare number with no unit suffix.

ECL (Erythrina cristagalli), Q6YD91 (protein) VETISFSFSEFEPGNNDLTLQGAAIITQSGVLQLTKINQNGMPAWDSTGRTLYTKPVHIWDMTTGTVASFETRFSFSIEQPYTRPLPADGLVFFMGPTKSKPAQGYGYLGVFNNSKQDNSYQTLAVEFDTFSNPWDPPQVPHIGIDVNSIRSIKTQPFQLDNGQVANVVIKYDASSKILLAVLVYPSSGAIYTIAEIVDVKQVLPEWVDVGLSGATGAQRDAAETHDVYSWSFHASLPETND    -0.388

The measured glycan array binding signal (z-score) associated with CLC (Homo sapiens), Q9UBD9 (protein) MDLRAGDSWGMLACLCTVLWHLPAVPALNRTGDPGPGPSIQKTYDLTRYLEHQLRSLAGTYLNYLGPPFNEPDFNPPRLGAETLPRATVDLEVWRSLNDKLRLTQNYEAYSHLLCYLRGLNRQAATAELRRSLAHFCTSLQGLLGSIAGVMAALGYPLPQPLPGTEPTWTPGPAHSDFLQKMDDFWLLKELQTWLWRSAKDFNRLKKKMQPPAAAVTLHLGAHGF reads -0.297

Data point: Strep tagII-anxA1 (Homo sapiens), P04083 (protein) MAMVSEFLKQAWFIENEEQEYVQTVKSSKGGPGSAVSPYPTFNPSSDVAALHKAIMVKGVDEATIIDILTKRNNAQRQQIKAAYLQETGKPLDETLKKALTGHLEEVVLALLKTPAQFDADELRAAMKGLGTDEDTLIEILASRTNKEIRDINRVYREELKRDLAKDITSDTSGDFRNALLSLAKGDRSEDFGVNEDLADSDARALYEAGERRKGTDVNVFNTILTTRSYPQLRRVFQKYTKYSKHDMNKVLDLELKGDIEKCLTAIVKCATSKPAFFAEKLHQAMKGVGTRHKALIRIMVSRSEIDMNDIKAFYQKMYGISLCQAILDETKGDYEKILVALCGGN ; glycan array binding signal (z-score) = -0.503

// HHL-2 (Homo sapiens), P07307 (protein) MAKDFQDIQQLSSEENDHPFHQGEGPGTRRLNPRRGNPFLKGPPPAQPLAQRLCSMVCFSLLALSFNILLLVVICVTGSQSEGHRGAQLQAELRSLKEAFSNFSSSTLTEVQAISTHGGSVGDKITSLGAKLEKQQQDLKADHDALLFHLKHFPVDLRFVACQMELLHSNGSQRTCCPVNWVEHQGSCYWFSHSGKAWAEAEKYCQLENAHLVVINSWEEQKFIVQHTNPFNTWIGLTDSDGSWKWVDGTDYRHNYKNWAVTQPDNWHGHELGGSEDCVEVQPDGRWNDDFCLQVYRWVCEKRRNATGEVA : glycan array binding signal (z-score) value = -0.379

The binder listed as LFA (Limax flavus) (protein) MSVLFLAASFLLLASFELVAAQGCPRQDPGDWIVIQRRLNADVNFYRGWADYKHGFGDLRCNFWLGNEKIHQLTSHGRYKLRVEFTFNNKSYFAEYSTFKILGEADKYKLQVGGYSGNAGDALTFHNGMAFSTNDRDNDADSIDCAKVYHGAWWYKTCHESNLNGKWGSKKYGEGLNWKAKTTFTATATSSLLKIKALK has a reported glycan array binding signal (z-score) of -0.284
